For each record, write down the corresponding % inhibition of TSH binding.
study-system: T1, TSH receptor (detergent solubilised TSH receptor preparation) (UniProt P16473 21-764, limits assumed)
T1 construct: In some assays captured or labelled through MAb 4E31 F(ab)2; also called thyrotrophin receptor
T1 sequence (P16473 21-764 limits assumed): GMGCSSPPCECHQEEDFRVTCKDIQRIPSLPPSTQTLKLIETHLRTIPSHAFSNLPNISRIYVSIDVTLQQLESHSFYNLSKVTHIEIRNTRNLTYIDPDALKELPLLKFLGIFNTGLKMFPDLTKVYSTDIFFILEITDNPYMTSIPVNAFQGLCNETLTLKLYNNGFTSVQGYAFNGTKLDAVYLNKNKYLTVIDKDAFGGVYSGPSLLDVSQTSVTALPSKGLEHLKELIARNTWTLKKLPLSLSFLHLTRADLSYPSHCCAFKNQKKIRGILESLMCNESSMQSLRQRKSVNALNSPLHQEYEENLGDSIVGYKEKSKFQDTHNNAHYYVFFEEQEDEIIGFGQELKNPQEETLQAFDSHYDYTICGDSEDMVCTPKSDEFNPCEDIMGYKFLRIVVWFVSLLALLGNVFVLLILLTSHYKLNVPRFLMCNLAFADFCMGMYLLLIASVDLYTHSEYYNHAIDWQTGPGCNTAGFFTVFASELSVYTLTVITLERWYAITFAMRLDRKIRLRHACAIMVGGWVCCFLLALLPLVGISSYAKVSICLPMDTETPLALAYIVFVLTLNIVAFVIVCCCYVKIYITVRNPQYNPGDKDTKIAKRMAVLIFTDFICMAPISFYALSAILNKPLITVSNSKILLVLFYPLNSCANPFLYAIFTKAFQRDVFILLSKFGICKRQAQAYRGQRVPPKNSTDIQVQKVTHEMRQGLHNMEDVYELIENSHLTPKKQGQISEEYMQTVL
test-description: 125I-TSH, TSHR coated tubes; 2 µg/ml
Write down the value, and be sure its unit follows.

Item: 16E5 IgG (antibody, V domains shown, not shown: a dimerising Fc or GST, mouse monoclonal IgG; also called MAb 16E5) VH: DVQLVQSGPELVKPGASVKMSCKASGYSFTGYNMHWVKQSHGKSLEWIGYIDPYNGATSYNQKFEDKATLTVDKSSSTAYMQLNSLTSEDSAVYYCARRWDWDPYAMDYWGQGTSVTVSS VL: DILLTQSPAILSVSPGERVSFSCRASQSIGTSIHWYQQRTNGSPRLLIKYASESISGIFSRFSGSGSGTDFTLTINSVESEDIADYYCQQSNRWPLTFGAGTKLELKR | % inhibition of TSH binding: 73.6%

Value of % inhibition of TSH binding reported for the binder 17D2 IgG (antibody, V domains shown, not shown: a dimerising Fc or GST, mouse monoclonal IgG) VH: DVQIQQSGPELVKPGASVKMSCKASGYSFTAYNMHWVKQTHGKSLEWIGYIDPYSGATSYHQKFKGKATLTVDKSSSTAYMRLNSLTSEDSAVYYCARRWDWDPYAMDYWGQGTSVTVSS VL: SVEMSQSPAILSVSPGERISFSCRASQSIGTSIHWYQQRTNGSPRLLIKYASASISGIPSRFSGSGSGTDFTLSINSVESEDIADYYCQQSNSWPLTFGAGTKLELKR is 73.7%

Notebook: 14D3 IgG (antibody, V domains shown, not shown: a dimerising Fc or GST, mouse monoclonal IgG; also called MAb 14D3) VH: DVQMQQPGPELVKPGASLKMSCKASGYSFTGYNMHWVKQSHGKSLEWIGYIDPYSGATSYNQKFEGKATLTVDKSSSTAYMQLNSLTSEDSAVYYCARRWDWDPYAMDYWGQGTSVTVSS VL: NILMTQSPAILSVSPGERVSFACRASQSIGTSIHWYQQRTNGSPRLLIKYASESISGIPSRFSGSGSGTDFTLSINSVESEDIADYYCQQTNRWPLTFGAGTKLELKR , % inhibition of TSH binding read as 61%

The binder 2B4 IgG (antibody, V domains shown, not shown: a dimerising Fc or GST, mouse monoclonal IgG; also called 2B4 MAb) VH: DVQLQQSGTVLARPGASVRMSCKASGYSFTRYWIHWLKQRPGQGLEWIGAIFPGNRDTSYNQRFKGKAEVTAVTSASTAYLDLSSLTNEDSAVYYCTRWPYYGSIYVNFDYWGQGTTLTVSS VL: DIVMTQSPLSLPVSLGDQASISCRTSQNLVHRNGNTYLHWYLQKPGQSPKLLIYKISNRFSGVPDRFSGSGSGTDFTLKISRVEAEDLGVYFCSQGTHVPPTFGGGTKLEIKR showed % inhibition of TSH binding equal to 69.9%

Just for reference, patent US20050118638A1 is where these values come from.
